Target: mouse TREK-1 (mTREK-1t) (Mus musculus, UniProt P97438)
Construct: (mTREK-1t) by Capital Biosciences (Rockville, Md.)
Experiment: FLIPR membrane potential assay in HEK-293 cells stably transfected with mTREK-1t
Type: cell-based
Details: HEK293, sample concentration 50 μM; relative to 50 mM potassium nitrate; read-out: Fluorescence per Sample concentration (percent activity relative to potassium nitrate)
activation at 50 µM: recorded values
Field format: number, assumed %, no unit text.

Solved entries (count: 3):
1) CCCCCC(C)CCC(=O)O (stereo not shown) [4-Methylnonanoic acid] ... 24.8
2) CC(C)CC=C(C=O)C(C)C [2-Isopropyl-5-methyl-2-hexenal] ... 11.1
3) CCCCC(CC)CCC(=O)O (stereo not shown) [4-Ethyloctanoic Acid] ... 31

In the following, a different molecule is considered.
Fill in: mouse TREK-1 (mTREK-1t) (Mus musculus, UniProt P97438) activation at 50 µM for CC(C)C=C(C=O)c1ccccc1 [4-Methyl-2-phenyl-2 Pentenal] = 16.5

---

Molecular target: mouse TREK-1 (mTREK-1t) (Mus musculus, UniProt P97438)
Construct: (mTREK-1t) by Capital Biosciences (Rockville, Md.)
Experiment: FLIPR membrane potential assay in HEK-293 cells stably transfected with mTREK-1t
Type: cell-based
Settings: HEK293, sample concentration 200 μM; relative to 50 mM potassium nitrate; read-out: Fluorescence per Sample concentration (percent activity relative to potassium nitrate)
RECORDED_ENDPOINT: activation at 200 µM
Please report the result as a number followed by the unit.

1) CCCCC(CC)CCC(=O)O (stereo not shown) ... 77.3%
2) CC(C)C=C(C=O)c1ccccc1 ... 52.1%
3) CC(C)CC=C(C=O)C(C)C ... 46.3%

In the following, a different molecule is considered.
Measured activation at 200 µM, CCCCCC(C)CCC(=O)O (stereo not shown) : 79.9%

---

Biological target: mouse TREK-1 (mTREK-1t) (Mus musculus, UniProt P97438)
Construct: (mTREK-1t) by Capital Biosciences (Rockville, Md.)
Sequence (P97438 with tags, fused parts or gaps limits assumed): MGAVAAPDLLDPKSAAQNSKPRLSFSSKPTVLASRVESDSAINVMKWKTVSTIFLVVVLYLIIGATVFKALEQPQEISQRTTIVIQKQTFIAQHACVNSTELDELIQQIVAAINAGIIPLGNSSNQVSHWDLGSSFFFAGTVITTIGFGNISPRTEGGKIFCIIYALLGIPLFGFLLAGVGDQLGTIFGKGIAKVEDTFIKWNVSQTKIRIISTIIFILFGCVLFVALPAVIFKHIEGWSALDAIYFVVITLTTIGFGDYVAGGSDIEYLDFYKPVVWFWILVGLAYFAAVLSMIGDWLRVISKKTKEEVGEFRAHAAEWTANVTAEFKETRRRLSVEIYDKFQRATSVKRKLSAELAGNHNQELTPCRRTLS
Test: FLIPR membrane potential assay in HEK-293 cells stably transfected with mTREK-1t
Format: cell-based
Details: HEK293, Sample Conc. 0.0042%; read-out: Activity Level (percentage of activity relative to 100% with 50 mM potassium nitrate)
Where a name gives a salt, the structure may show the parent alone.
activation at 0.0042 %: recorded values
Field format: number, assumed %, no unit text.

Solved entries (count: 2):
1) CCCCOC(=O)CC(CC(=O)OCCCC)(OC(C)=O)C(=O)OCCCC [Acetyl Tributyl Citrate] ... 2.5
2) CCCOC(=O)CCCCC(=O)OCCC [Dipropyl Adipate] ... 0

Measured activation at 0.0042 %, CCOC(=O)CC(O)(CC(=O)OCC)C(=O)OCC [Triethyl Citrate] : 3.67

Measured activation at 0.0042 %, CC(C)OC(=O)CCCCC(=O)OC(C)C [Diisopropyl Adipate] : 3.56

// provenance: patent US9884130B2
